- TARGET_UNDER_TEST: human recombinant MAGL (monoacylglycerol lipase) (Homo sapiens, UniProt Q99685)
- Construct: purchased Cayman Chemical Item No. 705192
- Sequence (Q99685 whole entry): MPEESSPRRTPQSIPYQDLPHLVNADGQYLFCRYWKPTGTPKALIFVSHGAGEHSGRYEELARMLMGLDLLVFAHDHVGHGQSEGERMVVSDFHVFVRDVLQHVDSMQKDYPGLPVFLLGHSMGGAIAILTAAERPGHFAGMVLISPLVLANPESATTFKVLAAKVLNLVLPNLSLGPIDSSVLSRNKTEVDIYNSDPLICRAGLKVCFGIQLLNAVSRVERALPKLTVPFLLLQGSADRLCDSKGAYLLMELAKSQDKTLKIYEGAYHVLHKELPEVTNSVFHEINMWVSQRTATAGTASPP
- METHOD_NOTES: In vitro MAGL enzyme inhibition assay (Cayman Monoacylglycerol Lipase Inhibitor Screening Assay, 4-nitrophenylacetate hydrolysis)
- Assay type: biochemical
- COND: 4-nitrophenylacetate substrate, 15 min preincubation, absorbance 405-415 nm
# log10(IC50) listing for each entry below
Hello, just confirming the data are log10 of IC50 with units of nM.

Consider the following illustrative entries.
Form field log10(IC50) for item O=C(OC(CO)C(F)(F)F)N1CCC(c2cn3c(n2)CCc2cc(F)ccc2-3)CC1 (centres unmarked) [Compound 26] on human recombinant MAGL (monoacylglycerol lipase) (Homo sapiens, UniProt Q99685): 1.92

Form field log10(IC50) for item O=C(OC(CO)C(F)(F)F)N1CCC(c2nc3n(c2Br)-c2ncc(F)cc2CC3)CC1 (centres unmarked) [Compound 31] on human recombinant MAGL (monoacylglycerol lipase) (Homo sapiens, UniProt Q99685): 1.51

Form field log10(IC50) for item CC(C)c1c(C2CCN(C(=O)OC(C(F)(F)F)C(F)(F)F)CC2)nn2c1CCc1cc(F)cnc1-2 [Compound 21] on human recombinant MAGL (monoacylglycerol lipase) (Homo sapiens, UniProt Q99685): 2.18

Form field log10(IC50) for item O=C(OC(CO)C(F)(F)F)N1CCC(c2nc3n(c2Br)-c2ccc(F)cc2CC3)CC1 (centres unmarked) [Compound 28] on human recombinant MAGL (monoacylglycerol lipase) (Homo sapiens, UniProt Q99685): 1.40

Form field log10(IC50) for item O=C(OC(CO)C(F)(F)F)N1CCC(c2nn3c(c2Br)CCc2cc(F)ccc2-3)CC1 (centres unmarked) [Compound 5] on human recombinant MAGL (monoacylglycerol lipase) (Homo sapiens, UniProt Q99685): 1.57

Others:
Form field log10(IC50) for item O=C(OC(C(F)(F)F)C(F)(F)F)N1CCN(c2cc3n(n2)-c2ccc(F)cc2CC3)CC1 [Compound 35] on human recombinant MAGL (monoacylglycerol lipase) (Homo sapiens, UniProt Q99685): 1.12

Form field log10(IC50) for item O=C(OC(CO)C(F)(F)F)N1CCC(c2cc3n(n2)-c2ccc(F)cc2CC3)CC1 (centres unmarked) [Compound 2] on human recombinant MAGL (monoacylglycerol lipase) (Homo sapiens, UniProt Q99685): 1.20

Form field log10(IC50) for item Cc1c(C2CCN(C(=O)OC(CO)C(F)(F)F)CC2)nn2c1CCc1cc(F)ccc1-2 (centres unmarked) [Compound 6] on human recombinant MAGL (monoacylglycerol lipase) (Homo sapiens, UniProt Q99685): 1.22
